Target: Mitogen-activated protein kinase 10 (Rattus norvegicus)
Test: Inhibition of rat c-Jun N-terminal kinase 3
Reported IC50 values are given for each entry in this list.

CCCNc1nccc(C(C#N)c2nc3ccccc3s2)n1 (configuration not stated) : > 5 µM
N#CC(c1ccncn1)c1nc2ccccc2s1 (configuration not stated) : > 5 µM
Cc1ccc(CCNc2nccc(C(C#N)c3nc4ccccc4s3)n2)cc1 (configuration not stated) : > 5 µM
N#CC(c1ccnc(NCCc2ccccn2)n1)c1nc2ccccc2s1 (configuration not stated) : 0.25 µM

Lab note: N#CC(c1ccnc(NCCc2c[nH]cn2)n1)c1nc2ccccc2s1 (configuration not stated) gave IC50 of 0.08 µM

Lab book: IC50 of N#CC(c1nc2ccccc2[nH]1)c1nc(Cl)ncc1Br (configuration not stated) noted as > 5 µM

For reference, reported IC50 for N#CC(c1cccc(Cl)n1)c1nc2ccccc2s1 (configuration not stated) stands at > 5 µM

The reported IC50 of the compound N#CC(c1ccnc(NCCc2cccc(Cl)c2)n1)c1nc2ccccc2s1 (configuration not stated) was > 5 µM

Entry N#CC(c1ccnc(NCCc2ccc(N)cc2)n1)c1nc2ccccc2s1 (configuration not stated) ; IC50 = 0.08 µM

###

Molecular target: Mitogen-activated protein kinase 10 (Rattus norvegicus)
Experiment: Inhibition of rat c-Jun N-terminal kinase 3
PROPERTY_MEASURED: IC50

The cases that follow already have their IC50 on record.
N#CC(c1ccnc(NCCc2ccccc2)n1)c1nc2ccccc2s1 (stereo unspecified) : > 5 µM
N#CC(c1ccnc(Cl)n1)c1nc2ccccc2s1 (stereo unspecified) : 0.25 µM
N#CC(c1ccnc(NCCc2ccc(F)cc2)n1)c1nc2ccccc2s1 (stereo unspecified) : > 5 µM
N#CC(c1ccnc(NCCc2ccc(Cl)c(Cl)c2)n1)c1nc2ccccc2s1 (stereo unspecified) : > 5 µM
CCCN(CCC)c1nccc(C(C#N)c2nc3ccccc3s2)n1 (stereo unspecified) : > 5 µM

Cc1cc(C(C#N)c2nc3ccccc3s2)nc(Cl)n1 (stereo unspecified) yielded IC50 of > 5 µM

###

Items are presented alongside their recorded pIC50.
Target: Mitogen-activated protein kinase 10 (Rattus norvegicus, UniProt P49187)
Sequence (P49187 whole entry): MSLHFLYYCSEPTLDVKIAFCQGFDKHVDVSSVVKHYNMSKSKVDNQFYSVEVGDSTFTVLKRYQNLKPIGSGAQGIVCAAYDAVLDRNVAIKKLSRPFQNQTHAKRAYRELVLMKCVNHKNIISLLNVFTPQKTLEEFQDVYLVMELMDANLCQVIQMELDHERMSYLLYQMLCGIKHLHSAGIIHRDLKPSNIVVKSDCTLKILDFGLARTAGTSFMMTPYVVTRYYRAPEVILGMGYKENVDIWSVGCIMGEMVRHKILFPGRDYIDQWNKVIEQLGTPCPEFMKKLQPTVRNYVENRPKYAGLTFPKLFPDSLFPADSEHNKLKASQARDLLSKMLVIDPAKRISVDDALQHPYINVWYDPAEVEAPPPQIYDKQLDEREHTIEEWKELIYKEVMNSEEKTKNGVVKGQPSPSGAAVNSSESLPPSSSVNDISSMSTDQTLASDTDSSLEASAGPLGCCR
Assay: Inhibition of rat c-Jun N-terminal kinase 3
pIC50: −log10 of the molar value.

Check out these entries, answers already filled in.
N#CC(c1ccnc(NCc2nnn[nH]2)n1)c1nc2ccccc2s1 (stereo not drawn) : < 5.30
N#CC(c1ccnc(NCCc2ccc(Br)cc2)n1)c1nc2ccccc2s1 (stereo not drawn) : < 5.30

Next item in the queue.
Measured pIC50 (Mitogen-activated protein kinase 10 (Rattus norvegicus, UniProt P49187)), entry CCOC(=O)C(c1ccnc(Cl)n1)c1nc2ccccc2s1 (stereo not drawn) : < 5.30

Recorded values, source BindingDB's records for doi:10.1021/jm0310986.
